assay_target: hAC1 (Homo sapiens)
Construct: expressed in transfected cells
Sequence (Q08828 whole entry): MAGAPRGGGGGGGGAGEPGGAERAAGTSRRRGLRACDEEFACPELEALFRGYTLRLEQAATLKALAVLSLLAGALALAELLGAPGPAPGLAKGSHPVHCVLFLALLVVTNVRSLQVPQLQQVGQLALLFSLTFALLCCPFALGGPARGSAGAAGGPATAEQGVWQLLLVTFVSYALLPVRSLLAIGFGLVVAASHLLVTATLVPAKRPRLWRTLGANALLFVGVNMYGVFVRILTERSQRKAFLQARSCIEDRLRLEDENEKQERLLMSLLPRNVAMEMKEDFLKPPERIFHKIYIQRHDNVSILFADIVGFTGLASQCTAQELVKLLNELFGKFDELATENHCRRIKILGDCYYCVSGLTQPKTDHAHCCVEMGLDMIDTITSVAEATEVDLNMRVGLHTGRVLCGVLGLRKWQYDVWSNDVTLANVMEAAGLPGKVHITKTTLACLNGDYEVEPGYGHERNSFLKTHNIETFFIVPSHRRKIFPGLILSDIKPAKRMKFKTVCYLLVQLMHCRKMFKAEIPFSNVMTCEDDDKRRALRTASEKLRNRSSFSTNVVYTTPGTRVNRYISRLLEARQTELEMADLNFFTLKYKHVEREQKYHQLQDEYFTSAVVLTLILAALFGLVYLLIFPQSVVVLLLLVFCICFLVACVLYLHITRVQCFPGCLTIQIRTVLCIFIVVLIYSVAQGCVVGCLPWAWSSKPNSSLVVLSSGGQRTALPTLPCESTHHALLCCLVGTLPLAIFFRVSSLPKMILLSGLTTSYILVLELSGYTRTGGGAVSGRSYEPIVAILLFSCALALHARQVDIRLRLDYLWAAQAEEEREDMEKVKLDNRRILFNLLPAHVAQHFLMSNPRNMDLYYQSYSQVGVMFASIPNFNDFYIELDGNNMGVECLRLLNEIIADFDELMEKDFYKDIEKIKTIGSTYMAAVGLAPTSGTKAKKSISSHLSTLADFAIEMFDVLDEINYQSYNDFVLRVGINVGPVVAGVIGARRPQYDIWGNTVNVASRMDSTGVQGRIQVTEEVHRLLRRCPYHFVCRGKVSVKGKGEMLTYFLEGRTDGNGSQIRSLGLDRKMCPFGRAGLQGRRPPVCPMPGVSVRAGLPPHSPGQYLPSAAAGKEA
test_protocol: Cyclic AMP accumulation in HEK cells stably expressing AC1, stimulated with A23187 (HTRF)
Format: cell-based
stated_conditions: HEK-AC1 cells; read-out: HEK-AC1 IC50
pIC50: −log10 of the molar value.
observation_type: pIC50

Look over these answered cases.
CSc1cccc(C(=O)Nc2nnc(C3CCCCC3)o2)c1	5.18
COc1cc(C(=O)Nc2nnc(C3CCCCC3)o2)cc(C(F)(F)F)c1	5.32
O=C(Nc1nnc(-c2ccc3c(c2)CCCC3)o1)c1ccccc1	5.47
COc1ccc(C(=O)Nc2nnc(C3CCCCC3)o2)cc1	4.66
Cc1cc(C(=O)Nc2nnc(C3CCCCC3)o2)cc(C(F)(F)F)c1	5.02

a. O=C(Nc1nnc(-c2ccc(F)cc2)o1)c1ccccc1
b. CSc1ccc(C(=O)Nc2nnc(-c3ccc4c(c3)OCCO4)o2)cc1
Exercise: Field: lower pIC50 | Options: a / b Indicate which entry you chose by stating its label.
Solution: a
(a: 4.54, b: 5.02)
